Molecular target: GlcNAc(b1-4)[GlcNAc(b1-6)]GalNAc
Test: glycan array binding signal (z-score within array); higher = stronger binding
Conditions: glycan notation: IUPAC condensed, linker removed
Shown is part of a subset that was picked to be rich in the strongest signals.
Metric: glycan array binding signal (z-score)

{"Binder": "ECA (Erythrina cristagalli), P83410 (protein) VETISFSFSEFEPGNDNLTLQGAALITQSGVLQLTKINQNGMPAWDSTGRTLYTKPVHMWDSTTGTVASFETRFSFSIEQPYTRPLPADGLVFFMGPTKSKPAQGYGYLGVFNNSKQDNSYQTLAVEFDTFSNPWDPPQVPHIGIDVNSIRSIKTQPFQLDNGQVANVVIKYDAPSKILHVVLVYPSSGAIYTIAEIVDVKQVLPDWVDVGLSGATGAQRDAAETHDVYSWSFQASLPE", "Observed Result": -0.228}
{"Binder": "Flo5 (Saccharomyces cerevisiae), P38894 (protein) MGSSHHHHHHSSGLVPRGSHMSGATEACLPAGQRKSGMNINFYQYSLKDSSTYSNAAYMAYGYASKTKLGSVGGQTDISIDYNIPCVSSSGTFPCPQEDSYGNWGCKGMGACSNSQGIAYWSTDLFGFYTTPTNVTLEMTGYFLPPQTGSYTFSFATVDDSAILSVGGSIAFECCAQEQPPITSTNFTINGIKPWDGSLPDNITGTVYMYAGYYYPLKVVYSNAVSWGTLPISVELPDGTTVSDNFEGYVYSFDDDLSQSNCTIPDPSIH", "Observed Result": -0.139}
{"Binder": "Si Bti9 1b-V5-his (Solanum lycopersicum) (protein) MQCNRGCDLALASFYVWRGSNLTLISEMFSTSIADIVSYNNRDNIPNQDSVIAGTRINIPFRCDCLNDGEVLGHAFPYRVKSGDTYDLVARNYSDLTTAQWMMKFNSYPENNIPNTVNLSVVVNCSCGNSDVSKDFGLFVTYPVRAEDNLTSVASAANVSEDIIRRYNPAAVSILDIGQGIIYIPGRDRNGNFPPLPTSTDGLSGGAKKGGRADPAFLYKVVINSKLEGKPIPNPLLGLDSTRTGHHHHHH", "Observed Result": 5.97}
{"Binder": "rCnSL-proA (Clitocybe nebularis) (protein) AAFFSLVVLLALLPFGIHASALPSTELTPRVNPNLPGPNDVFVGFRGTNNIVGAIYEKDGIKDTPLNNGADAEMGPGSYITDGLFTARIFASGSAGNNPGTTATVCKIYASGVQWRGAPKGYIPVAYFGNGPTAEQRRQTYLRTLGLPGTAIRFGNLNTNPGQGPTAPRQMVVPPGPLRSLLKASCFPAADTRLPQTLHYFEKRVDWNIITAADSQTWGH", "Observed Result": -0.002}
{"Binder": "Regenerating Gene I (Homo sapiens), P05451 (protein) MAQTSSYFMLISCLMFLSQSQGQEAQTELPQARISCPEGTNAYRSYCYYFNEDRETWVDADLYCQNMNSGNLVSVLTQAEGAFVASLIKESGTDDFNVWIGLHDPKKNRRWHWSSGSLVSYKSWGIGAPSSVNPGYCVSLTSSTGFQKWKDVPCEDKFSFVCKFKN", "Observed Result": 1.91}
